Tested on: SN12C
Measurement notes: NCI tumour cell line growth inhibition, 48 h
The source made the active and inactive calls. Cut-off read from the data, not from the text of the source: active = GI50 up to about 1.1 µM and inactive = higher.
Result category, one only: active, inactive

Could you kindly confirm the outcome this assay logged for c1ccc(C2=NOC3COc4ccccc4OCC23)cc1 (stereo unspecified) ?
inactive

Could you kindly confirm the outcome this assay logged for CCCCCCCC(=O)OC(COC(=O)Cc1ccccc1)COC(=O)C(C)(C)C (stereo unspecified) ?
inactive

Could you kindly confirm the outcome this assay logged for O=C(O)c1ccc(Nc2nc3ccccc3nc2C(=O)O)cc1 ?
inactive

Could you kindly confirm the outcome this assay logged for Cc1ccc(Oc2cc(C)ccc2P(=O)(O)O)cc1 ?
inactive

Could you kindly confirm the outcome this assay logged for CC1CC[C@]2(C(=O)O)CCC3(C)C(=CC(=O)C4[C@@]5(C)CCC(=O)C(C)(C)C5CC[C@]43C)[C@@H]2[C@H]1C (stereo partly specified) ?
inactive

Could you kindly confirm the outcome this assay logged for O=Cc1ccc2c(c1)CC1(C2)Cc2ccc(C=O)cc2C1 ?
inactive

Could you kindly confirm the outcome this assay logged for C=CC1C(OC2OC(CO)C(O)C(O)C2O)OC=C(C(=O)OC)C1CC1CC(=O)CC(CCc2ccc(O)cc2)O1 (stereo unspecified) ?
inactive

Could you kindly confirm the outcome this assay logged for Cc1oc2c(c1C(=O)c1ccccc1)C(=O)c1ccccc1C2=O ?
inactive

Could you kindly confirm the outcome this assay logged for NS(=O)(=O)c1ccc(NC(=O)c2cccc3cc4ccccc4nc23)cc1 ?
inactive

Could you kindly confirm the outcome this assay logged for Cc1cccc2c(N)c3cccc(C(=O)NCC[N+](C)(C)Cc4ccc([N+](=O)[O-])s4)c3nc12 ?
active

Could you kindly confirm the outcome this assay logged for CC(C)(C)OC(=O)N[C@@H](Cc1ccccc1)C(=O)N1CC[C@@H](C(=O)N2[C@H]3CC4CC[C@@]3(CS2(=O)=O)C4(C)C)N1 ?
inactive
